- System: cellular dehydrogenase activity
- particulars: 20 μM; composite Z-score vs DMSO
measured_metric: MTT
Hey, just send me the number, nothing else.

[
  {
    "compound": "NC1(C(=O)O)CCCC1 [cycloleucine]",
    "system_tested": "cellular dehydrogenase activity",
    "MTT": "−1.310"
  },
  {
    "compound": "CCOC(=O)CCC(=O)O[C@H]1[C@H](O[C@@H]2[C@@H](C)[C@H](O[C@H]3C[C@@](C)(OC)[C@@H](O)[C@H](C)O3)[C@@H](C)C(=O)O[C@H](CC)[C@@](C)(O)[C@H](O)[C@@H](C)C(=O)[C@H](C)C[C@@]2(C)O)O[C@H](C)C[C@@H]1N(C)C [erythromycin ethylsuccinate]",
    "system_tested": "cellular dehydrogenase activity",
    "MTT": "−1.100"
  },
  {
    "compound": "CCN(CC)Cc1cc(Nc2ccnc3cc(Cl)ccc23)ccc1O [amodiaquine]",
    "system_tested": "cellular dehydrogenase activity",
    "MTT": "−1.008"
  }
]

Q: Please indicate MTT recorded for CC(=O)Oc1c(C)c(C)c2c(c1C)CCC(C)(CCCC(C)CCCC(C)CCCC(C)C)O2 (stereo not drawn) [alpha-tochopheryl acetate]
Result: −1.398

Q: Please indicate MTT recorded for CC(C)C[C@H]1C(=O)N2CCC[C@H]2[C@]2(O)O[C@](NC(=O)[C@@H]3C=C4c5cccc6[nH]c(Br)c(c56)C[C@H]4N(C)C3)(C(C)C)C(=O)N12 [bromocriptine]
Result: −1.667

Q: Please indicate MTT recorded for NS(=O)(=O)c1cc(C2(O)NC(=O)c3ccccc32)ccc1Cl (stereo not shown) [chlorthalidone]
Result: −1.134

Q: Please indicate MTT recorded for CC(=O)CCCCn1c(=O)c2c(ncn2C)n(C)c1=O [pentoxifylline]
Result: −0.600
